Provenance of the data: paper PMC11207571

experimental-system: cynomolgus monkey Mdr1 (Macaca fascicularis, UniProt Q8HZQ6)
Sequence (Q8HZQ6 1-1283): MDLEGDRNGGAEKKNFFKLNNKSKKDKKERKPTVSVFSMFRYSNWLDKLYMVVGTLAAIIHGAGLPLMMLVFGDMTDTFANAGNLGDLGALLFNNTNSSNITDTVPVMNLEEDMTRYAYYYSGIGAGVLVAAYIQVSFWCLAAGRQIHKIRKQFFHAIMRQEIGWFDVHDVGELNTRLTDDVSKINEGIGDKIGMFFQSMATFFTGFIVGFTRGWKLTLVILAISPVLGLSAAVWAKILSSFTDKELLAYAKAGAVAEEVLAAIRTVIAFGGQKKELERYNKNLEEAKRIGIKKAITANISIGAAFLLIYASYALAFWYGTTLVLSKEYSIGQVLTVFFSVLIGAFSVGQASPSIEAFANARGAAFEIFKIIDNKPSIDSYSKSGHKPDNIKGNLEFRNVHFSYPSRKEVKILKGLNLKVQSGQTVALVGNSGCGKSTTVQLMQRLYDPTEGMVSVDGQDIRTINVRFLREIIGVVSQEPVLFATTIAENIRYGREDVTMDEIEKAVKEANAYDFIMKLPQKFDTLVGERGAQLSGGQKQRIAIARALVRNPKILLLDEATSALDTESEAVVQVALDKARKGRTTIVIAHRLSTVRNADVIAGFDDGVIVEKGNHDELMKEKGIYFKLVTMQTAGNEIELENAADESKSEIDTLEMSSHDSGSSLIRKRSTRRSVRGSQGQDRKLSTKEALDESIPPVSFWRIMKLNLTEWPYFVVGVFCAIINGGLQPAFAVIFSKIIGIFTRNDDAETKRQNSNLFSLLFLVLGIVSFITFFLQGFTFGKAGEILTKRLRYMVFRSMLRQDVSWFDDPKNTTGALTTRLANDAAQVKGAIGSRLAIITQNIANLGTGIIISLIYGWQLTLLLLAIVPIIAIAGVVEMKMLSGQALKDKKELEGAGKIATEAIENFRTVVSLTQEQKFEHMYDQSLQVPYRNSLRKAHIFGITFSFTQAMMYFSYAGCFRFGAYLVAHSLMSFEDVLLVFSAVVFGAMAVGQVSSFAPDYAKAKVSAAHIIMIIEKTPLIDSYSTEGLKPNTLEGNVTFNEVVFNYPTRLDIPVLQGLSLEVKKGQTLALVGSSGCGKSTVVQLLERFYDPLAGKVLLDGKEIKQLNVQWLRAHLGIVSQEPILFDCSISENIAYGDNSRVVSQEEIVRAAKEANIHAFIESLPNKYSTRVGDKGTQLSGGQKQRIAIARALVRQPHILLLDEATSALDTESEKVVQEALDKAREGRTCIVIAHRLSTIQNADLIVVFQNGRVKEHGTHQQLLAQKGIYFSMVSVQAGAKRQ
assay-notes: Inhibition of 3H-digoxin or 3H-quinidine bidirectional transport in cyMDR1 cells
setup-conditions: Inhibition of quinidine transport IC50±SD, cyMDR1, probe 3H-quinidine 0.1 µM, 60 min; IC50 from ER
property-label: log10(IC50) (log10 of the value in µM)
Heads up, the numbers here are log10 of IC50 in µM units.

Worked examples, 3 molecules total:
molecule="COC(=O)C1=C(C)NC(C)=C(C(=O)OC(C)C)C1c1cccc2nonc12 (centres unmarked)" experimental_system="cynomolgus monkey Mdr1 (Macaca fascicularis, UniProt Q8HZQ6)" value=1.29
molecule="CCC(C)n1ncn(-c2ccc(N3CCN(c4ccc(OCC5COC(Cn6cncn6)(c6ccc(Cl)cc6Cl)O5)cc4)CC3)cc2)c1=O (centres unmarked)" experimental_system="cynomolgus monkey Mdr1 (Macaca fascicularis, UniProt Q8HZQ6)" value=-0.49
molecule="CCOC(=O)C1=C(C)NC(C)=C(C(=O)OC)C1c1cccc(Cl)c1Cl (centres unmarked)" experimental_system="cynomolgus monkey Mdr1 (Macaca fascicularis, UniProt Q8HZQ6)" value=1.71

State the recorded log10(IC50) for every item in the following list.
1. COCC(=O)O[C@]1(CCN(C)CCCc2nc3ccccc3[nH]2)CCc2cc(F)ccc2[C@@H]1C(C)C
2. Cc1ccccc1C(=O)Nc1ccc(C(=O)N2CCCC(O)c3cc(Cl)ccc32)c(C)c1 (centres unmarked)

[0.56, 0.71]
